Test system: L1210 leukemia ip in BDF1 mice, survival T/C
Assay: NCI In Vivo Anticancer Drug Screen. Data for tumor model L1210 Leukemia (intraperitoneal) in B6D2F1 (BDF1) mice
Settings: endpoint: mean survival time; dose: 200.0 mg/kg/injection; schedule: Q04DX003 (ip); vehicle: saline with Tween-80; higher = longer survival
Toxic doses and inconclusive results are not listed.

Molecule | T/C
CC(Oc1ccc(Br)cc1Br)C(=O)O (stereo unspecified) | 93 % of control
O=C1CN=C(c2ccccn2)c2cc(Cl)ccc2N1CCO | 112 % of control
C=C(C)c1c2c(Sc3ccc(C(C)(C)C)cc3)cccc2cc2cccc(Sc3ccc(C(C)(C)C)cc3)c12 | 93 % of control
Oc1ccccc1N=CC1CCCCC1 | 88 % of control
COc1ccccc1OC(=S)N(C)C | 122 % of control
COc1cccc(C(O)c2cnc(C)n2Cc2ccccc2)c1 (stereo unspecified) | 93 % of control
